Test system: KpDnaB helicase (Klebsiella pneumoniae, UniProt A6TGW0 1-471)
Assay: EMSA; 16.7 uM quercetin; apparent Kd; 20 mM HEPES pH 7.0, 100 mM NaCl, 25 C, 30 min, 1.7 nM dT30, no Mg2+ or nucleotide stated; native 8% PAGE in TBE at 4 C
Test readout: Kd (nM)
The figure you give is taken to be in nM; do not add the unit.

Record request: Kd value, item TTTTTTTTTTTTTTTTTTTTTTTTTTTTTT (ssDNA) [dT30]
1030
